test system: wheat germ agglutinin (Triticum aestivum), Alexa647-labelled; experiment: wheat germ agglutinin binders on compound microarrays, profiling panel, artefact control for SMM control-protein annotation, biochemical, small-molecule microarray, 635/667 nm fluorescence (AID 1140); conditions: WGA-A647 binding, 635 nm fluorescence, higher = more signal;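 further: score merges 667 nm feature emission with signal to noise over triplicate slides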
Classification field: true (1) = composite z-score at or over 0.3; false (0) = composite z-score under 0.3.

>  <Molecule>
C=CC[C@H](OC(=O)Nc1ccc(SC)cc1)c1ccc(O)c(F)c1

>  <Assigned category>
true (1)

$$$$
>  <Molecule>
COc1ccc([Si](C)(C)[C@H]2[C@H](CC(=O)N(CCO)Cc3ccccc3)O[C@@]3(C(=O)N(Cc4ccc(N5C(=O)c6cccc7cccc5c67)cc4)c4ccccc43)[C@@H]2C)cc1

>  <Assigned category>
true (1)

$$$$
>  <Molecule>
COc1cc(CO)cc(I)c1O[C@H]1C=C(C(=O)NCCO)C[C@@H](N(CCN2CCOCC2)C(=O)C2CCCO2)[C@@H]1O (some centres not stated)

>  <Assigned category>
false (0)

$$$$
>  <Molecule>
C=C(C(=O)CC[C@@H](OC(=O)c1ccccc1-c1ccccc1C(=O)O)c1ccc(CO)o1)C(C)C

>  <Assigned category>
true (1)

$$$$
>  <Molecule>
COC(=O)[C@@]1(Cc2ccc(F)cc2)[C@H]2c3cc(C(=O)N(C)C)n(CCF)c3C[C@H]2CN1C(=O)c1ccccc1

>  <Assigned category>
true (1)

$$$$

Entry O=C1C[C@@](C(=O)NCC(F)(F)F)(c2ccc([N+](=O)[O-])cc2)[C@@H](c2ccc(CO)cc2I)N1CC12CC3CC(CC(C3)C1)C2 : is its composite z-score no less than 0.3? false (0)

Entry CCCCC(=C=CC[C@@H](O)c1ccc(OCCO)cc1)CCO : is its composite z-score no less than 0.3? true (1)

Each recorded value in this set is attributed to PubChem BioAssay.
